- Test system: SEM cells
- method-description: cell viability relative to DMSO control; higher = less cytotoxic
- condition-parameters: HPLM + 10% dialyzed FBS; 48 h; 0.19 µM
property-label: cell viability (%)
One number for each entry, in %.

Would you please look over these solved cases?
# molecule, unit-name, recorded-value
data = [
    ("CCC(=C/[C@H](C)C/C=C/C(C)=C/[C@@H](C)C(=O)[C@@H](C)[C@H](O)[C@@H](C)C/C(C)=C/C(=O)O)/C=C/[C@@H]1OC(=O)C=C[C@@H]1C", "%", 75.7),
    ("C[S+](=O)([O-])c1ccc(-c2cnc(N)c(C(=O)Nc3ccccc3)n2)cc1", "%", 106),
    ("CC1(N2CCC(n3c([C@@H]4CCCNC4)nc4ccccc43)CC2)CCCCCCC1", "%", 89.3),
    ("CC(C)c1ccc(Cn2ccc3c4c(N)nc(NC5CC5)nc4ccc32)cc1", "%", 107),
]

Read the next record carefully.
Prompt: State the recorded cell viability for this entry: Cc1cncc2cccc([S+](=O)([O-])N3CCCN(C(=O)CN)C[C@@H]3C)c12
Completion: 134
